Target: glutathione S-transferase [GST: P08515]
Sequence (P08515 whole entry): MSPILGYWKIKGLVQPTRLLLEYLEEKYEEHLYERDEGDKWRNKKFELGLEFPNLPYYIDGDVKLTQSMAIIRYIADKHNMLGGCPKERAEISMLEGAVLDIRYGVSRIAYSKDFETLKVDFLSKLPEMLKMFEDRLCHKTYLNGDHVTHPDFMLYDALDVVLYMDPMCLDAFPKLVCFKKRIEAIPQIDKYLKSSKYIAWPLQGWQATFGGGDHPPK
Assay: indirect ELISA, GST coated
readout-name: ELISA affinity (LogIC50 (oD450nm))
Could you keep your reply to the number by itself?

[
  {
    "binder": "G45 (VHH) VHH: EVQLVESGGGLVQPGGSLRLSCAASGSIFSINSMGWYRQAPGKQRELVAAITSGGSTNYANSVKGRFTISRNNARNTVWLQMNSLKPEDTAVYYCNADLNVVRGYSGDYHGSSDYWGQGTQVTVSS",
    "readout-name": "ELISA affinity (LogIC50 (oD450nm))",
    "reported-value": 3.17
  }
]

Would you kindly look at the next entry?
Consider the binder G51 (VHH) VHH: QVQLVESGGGLVQAGGSLKLSCAASGITFSINTIGWYRQAPGKQREFVAHITSDSTTYYADSVKARFTISRDSAKNTVHLQMNNLKPEDTAVYYCNVNPTWPYGGEVDYWGQGTQVTVSS and give its measured ELISA affinity (LogIC50 (oD450nm)). 4.45
